Reported values of GO annotation: positive regulation of defense response (Term: defense response) for individual entries
# Tested on: adjuvant-associated biological themes in LV, SP, LN
# stated.conditions: LV, ID
endpoint.label: GO annotation: positive regulation of defense response (Term: defense response)

molecule	measurement.target	value
Nc1nc2c(ncn2[C@@H]2O[C@@H]3COP(=O)(O)O[C@H]4[C@@H](O)[C@H](n5cnc6c(=O)[nH]c(N)nc65)O[C@@H]4COP(=O)(O)O[C@H]3[C@H]2O)c(=O)[nH]1 [cdiGMP, Cyclic diguanylate monophosphate]	adjuvant-associated biological themes in LV, SP, LN	35.8
Cc1ccc2c(=O)c3cccc(CC(=O)O)c3oc2c1C	adjuvant-associated biological themes in LV, SP, LN	19
CC(O)COC[C@H]1O[C@@H]2O[C@H]3[C@H](O)[C@@H](O)[C@@H](O[C@H]4[C@H](O)[C@@H](O)[C@@H](O[C@H]5[C@H](O)[C@@H](O)[C@@H](O[C@H]6[C@H](O)[C@@H](O)[C@@H](O[C@H]7[C@H](O)[C@@H](O)[C@@H](O[C@H]8[C@H](O)[C@@H](O)[C@@H](O[C@H]1[C@H](O)[C@H]2O)O[C@@H]8COCC(C)O)O[C@@H]7COCC(C)O)O[C@@H]6COCC(C)O)O[C@@H]5COCC(C)O)O[C@@H]4COCC(C)O)O[C@@H]3COCC(C)O (stereo partly drawn) [bCD, Hydroxypropyl-beta-cyclodextrin]	adjuvant-associated biological themes in LV, SP, LN	0
